These data points were gathered from patent US20210230159A1.

ASSAY OVERVIEW: Hydrogen peroxide (H2O2) inhibition assay (fluorescence, DCF/horseradish peroxidase)
Format: biochemical
CONDITION CONTEXT: HCl salt tested where HCl salt MW is given

SMILES STRUCTURE	IC50
CCCCCCNCc1cc(=O)n2cccc(O)c2n1	240 nM
Cc1ccc(O)c2nc(CNCc3ccc(F)cc3)cc(=O)n12	440 nM
O=C(NCC1CCCCC1)c1cnc2c(O)cccn2c1=O	490 nM
Cc1ccc(O)c2nc(CN3CCCCC3)cc(=O)n12	300 nM

---

ASSAY OVERVIEW: Hydrogen peroxide (H2O2) inhibition assay (fluorescence, DCF/horseradish peroxidase)
Format: biochemical
CONDITION CONTEXT: HCl salt tested where HCl salt MW is given
pIC50: −log10 of the molar value.

SMILES STRUCTURE	CENSORING SIGN	pIC50
CCNC(=O)c1cnc2c(O)cccn2c1=O	=	6.41
CN(Cc1cccc(F)c1)Cc1cc(=O)n2cccc(O)c2n1	=	6.46
O=c1cc(CNCCc2ccccn2)nc2c(O)cccn12	>	7.00
Cc1ccc(CNCc2cc(=O)n3cccc(O)c3n2)cc1	=	5.51
Cc1cccc(NCc2cc(=O)n3c(C)ccc(O)c3n2)n1	=	5.83
O=C(NCCN1CCCC1)c1cnc2c(O)cccn2c1=O	=	6.49
COc1ccc(CNCc2cc(=O)n3cccc(O)c3n2)cc1OC	=	6.23
O=c1cc(CNCc2ccc(OC(F)(F)F)cc2)nc2c(O)cccn12	=	6.33
CC1CCN(Cc2cc(=O)n3cccc(O)c3n2)CC1	<	5.00
Cc1ccc(O)c2nc(CN(C)C3CCCCC3)cc(=O)n12	=	6.15
O=c1cc(CNCc2ccc(Cl)cc2)nc2c(O)cccn12	=	5.94
CCN1CCN(Cc2cc(=O)n3cccc(O)c3n2)CC1	=	5.77
Cc1ccc(O)c2nc(CN(C)Cc3cccc(Cl)c3)cc(=O)n12	=	6.46
O=C(NCc1ccc(F)c(F)c1)c1cnc2c(O)cccn2c1=O	=	6.00
O=C(NCc1ccc(C(F)(F)F)cc1)c1cnc2c(O)cccn2c1=O	=	6.47
O=C(NCc1ccncc1)c1cnc2c(O)cccn2c1=O	=	6.42
Cc1ccc(O)c2nc(CN3CCC(C)CC3)cc(=O)n12	=	6.77
O=c1cc(CNC2CCCCC2)nc2c(O)cccn12	=	6.41
O=C(NC1CCCCC1)c1cnc2c(O)cccn2c1=O	=	6.36
CCCCCCCCNCc1cc(=O)n2cccc(O)c2n1	=	6.37
O=c1cc(CN2CCN(Cc3ccccc3F)CC2)nc2c(O)cccn12	=	6.00
CC(C)CNC(=O)c1cnc2c(O)cccn2c1=O	=	6.47
CCCNCc1cc(=O)n2c(C)ccc(O)c2n1	=	6.46
Cc1ccc(O)c2nc(CN(C)Cc3ccccc3F)cc(=O)n12	=	6.48
O=c1cc(CNCc2ccc(F)c(F)c2)nc2c(O)cccn12	=	6.48
CCNCc1cc(=O)n2cccc(O)c2n1	=	6.48
Cc1ccc(O)c2nc(CN(C)Cc3ccc(F)cc3)cc(=O)n12	=	6.44
CC(C)CNCc1cc(=O)n2cccc(O)c2n1	=	6.37
O=C(c1cnc2c(O)cccn2c1=O)N1CCCC1	=	6.05
CN(Cc1cccc(Cl)c1)Cc1cc(=O)n2cccc(O)c2n1	=	6.24
CNC(=O)c1cnc2c(O)cccn2c1=O	>	7.00
